Give pEC50 for every item shown.
biological target: Ras-related protein Rab-2A (Canis lupus familiaris); assay: Rab2 wildtype GTP-binding inhibitors, SAR follow-up, biochemical, additional analogs, bead-based flow cytometry, multiplex (AID 2046)
Sequence (P61105 whole entry): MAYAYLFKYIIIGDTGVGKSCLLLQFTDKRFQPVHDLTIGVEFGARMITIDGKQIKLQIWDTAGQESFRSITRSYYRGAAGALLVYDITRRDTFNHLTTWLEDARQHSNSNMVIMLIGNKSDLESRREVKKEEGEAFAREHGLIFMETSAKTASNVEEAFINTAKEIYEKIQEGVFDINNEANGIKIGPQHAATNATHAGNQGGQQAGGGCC
Recall that pEC50 is obtained by taking minus log10 of the concentration measured in molar.

# get_value(readout= pEC50, system= Ras-related protein Rab-2A (Canis lupus familiaris)) for `O=C1NC(=S)N/C1=C1\C(=O)Nc2ccccc21` 4.52

# get_value(readout= pEC50, system= Ras-related protein Rab-2A (Canis lupus familiaris)) for `O=C1N=c2c(F)cccc2=C1c1[nH]c2ccccc2c1NO` 4.52

# get_value(readout= pEC50, system= Ras-related protein Rab-2A (Canis lupus familiaris)) for `COc1ccc2cc([C@@H](C)C(=O)O)ccc2c1` 5.76

# get_value(readout= pEC50, system= Ras-related protein Rab-2A (Canis lupus familiaris)) for `O=C1Nc2c(Br)cccc2C1=C1Nc2ccccc2C1=O` 4.52

# get_value(readout= pEC50, system= Ras-related protein Rab-2A (Canis lupus familiaris)) for `O=C1NC(=O)/C(=C2/C(=O)Nc3ccccc32)N1` 4.52

# get_value(readout= pEC50, system= Ras-related protein Rab-2A (Canis lupus familiaris)) for `O=C1Nc2ccc(Br)cc2C1=C1Nc2ccccc2C1=O` 4.52

# get_value(readout= pEC50, system= Ras-related protein Rab-2A (Canis lupus familiaris)) for `O=C1Nc2ccccc2/C1=C1/Nc2ccccc2C1=O` 4.52

# get_value(readout= pEC50, system= Ras-related protein Rab-2A (Canis lupus familiaris)) for `O=C1Nc2c(F)cccc2C1=C1Nc2ccccc2C1=O` 4.52

# get_value(readout= pEC50, system= Ras-related protein Rab-2A (Canis lupus familiaris)) for `O=C1Nc2c(Cl)cccc2C1=C1Nc2ccccc2C1=O` 4.52

# get_value(readout= pEC50, system= Ras-related protein Rab-2A (Canis lupus familiaris)) for `O=C1N=c2ccccc2=C1c1[nH]c2ccccc2c1NO` 4.52

# get_value(readout= pEC50, system= Ras-related protein Rab-2A (Canis lupus familiaris)) for `O=C1N=c2ccc(Br)cc2=C1c1[nH]c2ccccc2c1NO` 4.19

# get_value(readout= pEC50, system= Ras-related protein Rab-2A (Canis lupus familiaris)) for `O=C1N=c2c(Cl)cccc2=C1c1[nH]c2ccccc2c1NO` 4.52

# get_value(readout= pEC50, system= Ras-related protein Rab-2A (Canis lupus familiaris)) for `O=C1N=c2c(Br)cccc2=C1c1[nH]c2ccccc2c1NO` 4.18

# get_value(readout= pEC50, system= Ras-related protein Rab-2A (Canis lupus familiaris)) for COc1ccc2cc([C@H](C)C(=O)O)ccc2c1 [UNM-0000306098] 4.52

# get_value(readout= pEC50, system= Ras-related protein Rab-2A (Canis lupus familiaris)) for `C[C@@H](C(=O)O)c1cccc(Oc2ccccc2)c1` 4.52
